- ASSAY OVERVIEW: The drug is tested on Blautia hansenii strain: DSM20583 for biotransformation. The drug concentrations were measured before and after a 12-h incubation by liquid-chromatography-coupled mass spectrometry (LC–MS)
- PROTOCOL CONDITIONS: 2 µM

[
  {
    "MOLECULE": "CNC(=C[N+](=O)[O-])NCCSCc1ccc(CN(C)C)o1 [RANITIDINE]",
    "Bacterial Biotransformation": "Compound metabolized"
  },
  {
    "MOLECULE": "COc1ccccc1OCC(O)CN1CCN(CC(=O)Nc2c(C)cccc2C)CC1 (stereo not drawn) [RANOLAZINE]",
    "Bacterial Biotransformation": "Compound NOT metabolized"
  },
  {
    "MOLECULE": "CN/C(=N/CCSCc1nc[nH]c1C)NC#N [CIMETIDINE]",
    "Bacterial Biotransformation": "Compound NOT metabolized"
  },
  {
    "MOLECULE": "CC(N)C12CC3CC(CC(C3)C1)C2 (stereo not drawn) [RIMANTADINE]",
    "Bacterial Biotransformation": "Compound NOT metabolized"
  },
  {
    "MOLECULE": "CC(=O)Oc1ccc(C(c2ccc(OC(C)=O)cc2)c2ccccn2)cc1 [BISACODYL]",
    "Bacterial Biotransformation": "Compound metabolized"
  },
  {
    "MOLECULE": "CNCCC(Oc1ccc(C(F)(F)F)cc1)c1ccccc1 (stereo not drawn) [FLUOXETINE]",
    "Bacterial Biotransformation": "Compound metabolized"
  },
  {
    "MOLECULE": "CN1CCN(C2=Nc3ccccc3Oc3ccc(Cl)cc32)CC1.O=C(O)CCC(=O)O [LOXAPINE SUCCINATE]",
    "Bacterial Biotransformation": "Compound NOT metabolized"
  },
  {
    "MOLECULE": "N=C(N)NC(=O)Cc1c(Cl)cccc1Cl [GUANFACINE]",
    "Bacterial Biotransformation": "Compound NOT metabolized"
  },
  {
    "MOLECULE": "CN(C/C=C/C#CC(C)(C)C)Cc1cccc2ccccc12 [TERBINAFINE]",
    "Bacterial Biotransformation": "Compound NOT metabolized"
  },
  {
    "MOLECULE": "Cc1cc2c(cc1S(N)(=O)=O)S(=O)(=O)CCC2",
    "Bacterial Biotransformation": "Compound NOT metabolized"
  },
  {
    "MOLECULE": "CC(=O)OCC(=O)[C@@]1(O)[C@@H](C)C[C@H]2[C@@H]3CCC4=CC(=O)C=C[C@]4(C)[C@@]3(F)[C@@H](O)C[C@@]21C [BETAMETHASONE ACETATE]",
    "Bacterial Biotransformation": "Compound metabolized"
  },
  {
    "MOLECULE": "COc1ccc(/C=C/C(=O)Nc2ccccc2C(=O)O)cc1OC",
    "Bacterial Biotransformation": "Compound NOT metabolized"
  },
  {
    "MOLECULE": "CCC(COC(=O)c1cc(OC)c(OC)c(OC)c1)(c1ccccc1)N(C)C.O=C(O)/C=C\\C(=O)O (stereo not drawn)",
    "Bacterial Biotransformation": "Compound metabolized"
  },
  {
    "MOLECULE": "Cc1ccc(S(=O)(=O)NC(=O)NN2CCCCCC2)cc1 [TOLAZAMIDE]",
    "Bacterial Biotransformation": "Compound metabolized"
  },
  {
    "MOLECULE": "COc1ccc2[nH]c([S+]([O-])Cc3ncc(C)c(OC)c3C)nc2n1 (stereo not drawn) [TENATOPRAZOLE]",
    "Bacterial Biotransformation": "Compound metabolized"
  },
  {
    "MOLECULE": "CN(CCOc1ccc(CC2SC(=O)NC2=O)cc1)c1ccccn1.O=C(O)/C=C\\C(=O)O (stereo not drawn) [ROSIGLITAZONE MALEATE]",
    "Bacterial Biotransformation": "Compound NOT metabolized"
  },
  {
    "MOLECULE": "CC[C@H](C)C(=O)O[C@H]1CCC=C2C=C[C@H](C)[C@H](CC[C@@H]3C[C@@H](O)CC(=O)O3)[C@H]21 [MEVASTATIN]",
    "Bacterial Biotransformation": "Compound metabolized"
  },
  {
    "MOLECULE": "CN(C)CCc1c[nH]c2ccc(Cn3cncn3)cc12.O=C(O)c1ccccc1 [RIZATRIPTAN BENZOATE]",
    "Bacterial Biotransformation": "Compound NOT metabolized"
  }
]

###

- ASSAY OVERVIEW: The drug is tested on Bacteroides coprophilus strain: DSM18228 for biotransformation. The drug concentrations were measured before and after a 12-h incubation by liquid-chromatography-coupled mass spectrometry (LC–MS)
- PROTOCOL CONDITIONS: 2 µM

[
  {
    "MOLECULE": "CCCCC1=NC2(CCCC2)C(=O)N1Cc1ccc(-c2ccccc2-c2nnn[nH]2)cc1",
    "Bacterial Biotransformation": "Compound NOT metabolized"
  },
  {
    "MOLECULE": "CN(C)CCC=C1c2ccccc2C=Cc2ccccc21",
    "Bacterial Biotransformation": "Compound NOT metabolized"
  },
  {
    "MOLECULE": "CCN(CC)CCOCCOC(=O)C1(c2ccccc2)CCCC1.O=C(O)CC(O)(CC(=O)O)C(=O)O [CARBETAPENTANE CITRATE]",
    "Bacterial Biotransformation": "Compound metabolized"
  },
  {
    "MOLECULE": "Nc1nnc(-c2cccc(Cl)c2Cl)c(N)n1",
    "Bacterial Biotransformation": "Compound NOT metabolized"
  },
  {
    "MOLECULE": "CC[C@@H](CO)NC(=O)[C@@H]1C=C2c3cccc4c3c(cn4C)C[C@H]2N(C)C1.O=C(O)/C=C\\C(=O)O [METHYSERGIDE MALEATE]",
    "Bacterial Biotransformation": "Compound metabolized"
  },
  {
    "MOLECULE": "C=CCc1ccccc1OCC(O)CNC(C)C (stereo not drawn)",
    "Bacterial Biotransformation": "Compound NOT metabolized"
  },
  {
    "MOLECULE": "C[C@@H]1C[C@H]2[C@@H]3CCC4=CC(=O)C=C[C@]4(C)[C@@]3(F)[C@@H](O)C[C@]2(C)[C@@]1(O)C(=O)CO",
    "Bacterial Biotransformation": "Compound NOT metabolized"
  },
  {
    "MOLECULE": "CC(CCc1ccccc1)NCC(O)c1ccc(O)c(C(N)=O)c1 (stereo not drawn)",
    "Bacterial Biotransformation": "Compound NOT metabolized"
  }
]

###

- ASSAY OVERVIEW: The drug is tested on Bacteroides sp. WH2 strain: WH2 for biotransformation. The drug concentrations were measured before and after a 12-h incubation by liquid-chromatography-coupled mass spectrometry (LC–MS)
- PROTOCOL CONDITIONS: bacteroides sp. wh2, 12 h, 2 µM
VALUE KIND: Bacterial Biotransformation

[
  {
    "COMPOUND": "OCCN(CCO)c1nc(N2CCCCC2)c2nc(N(CCO)CCO)nc(N3CCCCC3)c2n1",
    "MEASURED RESULT": "Compound NOT metabolized"
  },
  {
    "COMPOUND": "CCCCc1nc(Cl)c(CO)n1Cc1ccc(-c2ccccc2-c2nn[nH]n2)cc1",
    "MEASURED RESULT": "Compound NOT metabolized"
  },
  {
    "COMPOUND": "Cc1cc2c(cc1S(N)(=O)=O)S(=O)(=O)CCC2",
    "MEASURED RESULT": "Compound NOT metabolized"
  },
  {
    "COMPOUND": "CN1C[C@H](C(=O)N[C@]2(C)O[C@@]3(O)[C@@H]4CCCN4C(=O)[C@H](Cc4ccccc4)N3C2=O)C=C2c3cccc4[nH]cc(c34)C[C@H]21.CN1C[C@H](C(=O)N[C@]2(C)O[C@@]3(O)[C@@H]4CCCN4C(=O)[C@H](Cc4ccccc4)N3C2=O)C=C2c3cccc4[nH]cc(c34)C[C@H]21.O=C(O)C(O)C(O)C(=O)O [ERGOTAMINE TARTRATE]",
    "MEASURED RESULT": "Compound metabolized"
  },
  {
    "COMPOUND": "Cc1nc2n(c(=O)c1CCN1CCC(c3noc4cc(F)ccc34)CC1)CCCC2",
    "MEASURED RESULT": "Compound NOT metabolized"
  },
  {
    "COMPOUND": "COc1ccc2[nH]c([S+]([O-])Cc3ncc(C)c(OC)c3C)nc2n1 (configuration not stated)",
    "MEASURED RESULT": "Compound metabolized"
  },
  {
    "COMPOUND": "CC(=O)CC(c1ccccc1)c1c(O)c2ccccc2oc1=O (configuration not stated)",
    "MEASURED RESULT": "Compound NOT metabolized"
  }
]

###

- ASSAY OVERVIEW: The drug is tested on Enterobacter cancerogenus strain: ATCC35316 for biotransformation. The drug concentrations were measured before and after a 12-h incubation by liquid-chromatography-coupled mass spectrometry (LC–MS)
- PROTOCOL CONDITIONS: 2 µM

[
  {
    "COMPOUND": "C[C@H]1O[C@@H](O[C@H]2[C@@H](O)C[C@H](O[C@H]3[C@@H](O)C[C@H](O[C@H]4CC[C@@]5(C)[C@H](CC[C@@H]6[C@@H]5C[C@@H](O)[C@]5(C)[C@@H](C7=CC(=O)OC7)CC[C@]65O)C4)O[C@@H]3C)O[C@@H]2C)C[C@H](O)[C@@H]1O [DIGOXIN]",
    "Bacterial Biotransformation": "Compound NOT metabolized"
  },
  {
    "COMPOUND": "CC(CCc1ccccc1)NCC(O)c1ccc(O)c(C(N)=O)c1 (centres undefined) [LABETALOL]",
    "Bacterial Biotransformation": "Compound NOT metabolized"
  },
  {
    "COMPOUND": "CCc1cccc2c3c([nH]c12)C(CC)(CC(=O)O)OCC3 (centres undefined) [ETODOLAC]",
    "Bacterial Biotransformation": "Compound NOT metabolized"
  },
  {
    "COMPOUND": "CCN1CCCC1CNC(=O)c1cc(S(N)(=O)=O)ccc1OC (centres undefined) [SULPIRIDE]",
    "Bacterial Biotransformation": "Compound NOT metabolized"
  },
  {
    "COMPOUND": "CNC(=C[N+](=O)[O-])NCCSCc1ccc(CN(C)C)o1 [RANITIDINE]",
    "Bacterial Biotransformation": "Compound NOT metabolized"
  },
  {
    "COMPOUND": "CC(=O)O[C@H]1C(=O)[C@@]2(C)[C@H]([C@H](OC(=O)c3ccccc3)[C@]3(O)C[C@H](OC(=O)[C@H](O)[C@@H](NC(=O)c4ccccc4)c4ccccc4)C(C)=C1C3(C)C)[C@]1(OC(C)=O)CO[C@@H]1C[C@@H]2O [PACLITAXEL]",
    "Bacterial Biotransformation": "Compound NOT metabolized"
  },
  {
    "COMPOUND": "O=C([O-])C[C@H](O)C[C@H](O)/C=C/c1c(C2CC2)nc2ccccc2c1-c1ccc(F)cc1.O=C([O-])C[C@H](O)C[C@H](O)/C=C/c1c(C2CC2)nc2ccccc2c1-c1ccc(F)cc1.[Ca+2] [PITAVASTATIN CALCIUM]",
    "Bacterial Biotransformation": "Compound NOT metabolized"
  },
  {
    "COMPOUND": "CC(O)(CS(=O)(=O)c1ccc(F)cc1)C(=O)Nc1ccc(C#N)c(C(F)(F)F)c1 (centres undefined) [BICALUTAMIDE]",
    "Bacterial Biotransformation": "Compound metabolized"
  },
  {
    "COMPOUND": "CN[C@H]1CC[C@@H](c2ccc(Cl)c(Cl)c2)c2ccccc21 [SERTRALINE]",
    "Bacterial Biotransformation": "Compound NOT metabolized"
  },
  {
    "COMPOUND": "CC12CC3CC(C)(C1)CC(N)(C3)C2 [MEMANTINE]",
    "Bacterial Biotransformation": "Compound NOT metabolized"
  },
  {
    "COMPOUND": "COc1ccc2c3c1O[C@H]1C[C@@H](O)C=C[C@@]31CCN(C)C2 [GALANTAMINE]",
    "Bacterial Biotransformation": "Compound NOT metabolized"
  },
  {
    "COMPOUND": "CCN(CC)CCOC(=O)C(Cc1cccc2ccccc12)CC1CCCO1.O=C(O)C(=O)O (centres undefined) [NAFRONYL OXALATE]",
    "Bacterial Biotransformation": "Compound NOT metabolized"
  },
  {
    "COMPOUND": "O=C(CCCN1CCC2(CC1)C(=O)NCN2c1ccccc1)c1ccc(F)cc1 [SPIPERONE]",
    "Bacterial Biotransformation": "Compound NOT metabolized"
  },
  {
    "COMPOUND": "CCOC(=O)[C@H](CCc1ccccc1)N[C@@H](C)C(=O)N1[C@H](C(=O)O)C[C@H]2CCCC[C@@H]21 [TRANDOLAPRIL]",
    "Bacterial Biotransformation": "Compound NOT metabolized"
  },
  {
    "COMPOUND": "CC(=O)CCCCn1c(=O)c2c(ncn2C)n(C)c1=O [PENTOXIFYLLINE]",
    "Bacterial Biotransformation": "Compound NOT metabolized"
  },
  {
    "COMPOUND": "CN1[C@@H]2CC[C@H]1C[C@@H](OC(=O)c1c[nH]c3ccccc13)C2 [TROPISETRON]",
    "Bacterial Biotransformation": "Compound NOT metabolized"
  },
  {
    "COMPOUND": "CCN(CC)CCOCCOC(=O)C1(c2ccccc2)CCCC1.O=C(O)CC(O)(CC(=O)O)C(=O)O [CARBETAPENTANE CITRATE]",
    "Bacterial Biotransformation": "Compound metabolized"
  },
  {
    "COMPOUND": "COc1ccccc1OCCNCC(O)COc1cccc2[nH]c3ccccc3c12 (centres undefined) [CARVEDILOL]",
    "Bacterial Biotransformation": "Compound metabolized"
  },
  {
    "COMPOUND": "CCc1nn(CCCN2CCN(c3cccc(Cl)c3)CC2)c(=O)n1CCOc1ccccc1 [NEFAZODONE]",
    "Bacterial Biotransformation": "Compound NOT metabolized"
  }
]
